# credit: patent US20130133089A1

Molecular target: long form of human leptin receptor (hLEPR) on BAF/3 or H-49 (HEK-293) cells (human), P48357
Sequence (P48357 22-1165): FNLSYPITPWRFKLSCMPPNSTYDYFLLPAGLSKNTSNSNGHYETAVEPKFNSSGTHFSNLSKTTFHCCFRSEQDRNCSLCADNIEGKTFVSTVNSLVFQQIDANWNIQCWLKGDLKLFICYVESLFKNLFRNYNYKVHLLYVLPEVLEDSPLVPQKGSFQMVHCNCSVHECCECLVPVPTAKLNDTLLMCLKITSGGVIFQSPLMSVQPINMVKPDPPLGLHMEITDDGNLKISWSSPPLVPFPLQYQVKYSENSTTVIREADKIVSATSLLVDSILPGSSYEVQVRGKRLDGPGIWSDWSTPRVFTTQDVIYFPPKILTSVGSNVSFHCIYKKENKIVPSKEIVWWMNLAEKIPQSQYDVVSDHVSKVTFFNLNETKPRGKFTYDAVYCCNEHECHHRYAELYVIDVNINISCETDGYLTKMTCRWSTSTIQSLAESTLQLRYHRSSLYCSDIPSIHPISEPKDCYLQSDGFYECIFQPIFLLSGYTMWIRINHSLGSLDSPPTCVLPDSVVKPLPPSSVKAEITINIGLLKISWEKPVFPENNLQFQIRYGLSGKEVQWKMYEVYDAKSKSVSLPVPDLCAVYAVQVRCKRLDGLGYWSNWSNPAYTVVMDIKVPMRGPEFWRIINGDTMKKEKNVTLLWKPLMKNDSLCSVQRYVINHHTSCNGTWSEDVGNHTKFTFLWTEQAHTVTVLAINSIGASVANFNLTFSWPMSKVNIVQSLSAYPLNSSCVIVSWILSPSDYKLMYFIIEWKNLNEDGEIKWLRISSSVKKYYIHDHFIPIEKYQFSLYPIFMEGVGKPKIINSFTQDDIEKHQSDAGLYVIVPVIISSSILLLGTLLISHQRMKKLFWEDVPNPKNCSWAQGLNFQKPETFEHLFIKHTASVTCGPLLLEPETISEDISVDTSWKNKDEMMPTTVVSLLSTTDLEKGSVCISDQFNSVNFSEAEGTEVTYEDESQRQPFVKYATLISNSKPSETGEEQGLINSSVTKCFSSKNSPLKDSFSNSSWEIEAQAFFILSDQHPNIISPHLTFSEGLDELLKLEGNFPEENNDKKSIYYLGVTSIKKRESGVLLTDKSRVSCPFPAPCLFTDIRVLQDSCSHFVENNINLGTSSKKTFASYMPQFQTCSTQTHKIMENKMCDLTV
Experiment: cell-based or functional assay
assayReadout: BAF/3 bioassay: fold increase in bioactivity as compared to the WT mouse leptin (fold)

[
  {
    "binder": "recombinant mouse leptin mutein H16 (D23G, G112S), agonist (ligand, mature) AVPIQKVQDDTKTLIKTIVTRINGISHTQSVSAKQRVTGLDFIPGLHPILSLSKMDQTLAVYQQVLTSLPSQNVLQIANDLENLRDLLHLLAFSKSCSLPQTSGLQKPESLDSVLEASLYSTEVVALSRLQGSLQDILQQLDVSPEC",
    "resultUnit": "fold",
    "measuredValue": 0.8
  },
  {
    "binder": "recombinant mouse leptin mutein H15 (D23G, L68M, S97F, S132Y), agonist, P41160 22-167 (ligand) AVPIQKVQDDTKTLIKTIVTRINGISHTQSVSAKQRVTGLDFIPGLHPILSLSKMDQTLAVYQQVLTSMPSQNVLQIANDLENLRDLLHLLAFSKSCFLPQTSGLQKPESLDGVLEASLYSTEVVALSRLQGYLQDILQQLDVSPEC",
    "resultUnit": "fold",
    "measuredValue": 0.5
  },
  {
    "binder": "recombinant mouse leptin mutein H19 (D23G, T37A, G44D), agonist (ligand, mature) AVPIQKVQDDTKTLIKTIVTRINGISHTQSVSAKQRVAGLDFIPDLHPILSLSKMDQTLAVYQQVLTSLPSQNVLQIANDLENLRDLLHLLAFSKSCSLPQTSGLQKPESLDGVLEASLYSTEVVALSRLQGSLQDILQQLDVSPEC",
    "resultUnit": "fold",
    "measuredValue": 0.9
  },
  {
    "binder": "recombinant mouse leptin mutein H22 (T12I), agonist, P41160 22-167 (ligand) AVPIQKVQDDTKILIKTIVTRINDISHTQSVSAKQRVTGLDFIPGLHPILSLSKMDQTLAVYQQVLTSLPSQNVLQIANDLENLRDLLHLLAFSKSCSLPQTSGLQKPESLDGVLEASLYSTEVVALSRLQGSLQDILQQLDVSPEC",
    "resultUnit": "fold",
    "measuredValue": 0.8
  },
  {
    "binder": "recombinant mouse leptin mutein H12 (S97Y), agonist, P41160 22-167 (ligand) AVPIQKVQDDTKTLIKTIVTRINDISHTQSVSAKQRVTGLDFIPGLHPILSLSKMDQTLAVYQQVLTSLPSQNVLQIANDLENLRDLLHLLAFSKSCYLPQTSGLQKPESLDGVLEASLYSTEVVALSRLQGSLQDILQQLDVSPEC",
    "resultUnit": "fold",
    "measuredValue": 0.9
  },
  {
    "binder": "recombinant mouse leptin mutein H30 (D23H), agonist (ligand, mature) AVPIQKVQDDTKTLIKTIVTRINHISHTQSVSAKQRVTGLDFIPGLHPILSLSKMDQTLAVYQQVLTSLPSQNVLQIANDLENLRDLLHLLAFSKSCSLPQTSGLQKPESLDGVLEASLYSTEVVALSRLQGSLQDILQQLDVSPEC",
    "resultUnit": "fold",
    "measuredValue": 0.3
  }
]
